# credit: ChEMBL document CHEMBL2069208

- Test system: Jurkat
- experiment summary: Growth inhibition of human Jurkat cells
- Type: functional, cell-based
Give pIC50 for every item shown.
One number for each entry, as −log10 of the molar value.

Q: Returns the measured pIC50 for the input compound. Input: CCC(C)CCOC1OC(=O)[C@]23C[C@@H]4CC(C)(C)CC4=C(C=O)[C@]12C3 (mixture of isomers) [UDALACTARANE A]
Ans: 4.00

Q: Returns the measured pIC50 for the input compound. Input: CC1=C2C[C@@](C)(COC3OC(=O)[C@]45C[C@@H]6CC(C)(C)CC6=C(C=O)[C@]34C5)C[C@H]2C[C@]2(C)CC[C@]12O (mixture of isomers) [UDALACTARANE B]
Ans: 4.38

# evaluate next
Q: Returns the measured pIC50 for the input compound. Input: CC1=C2C[C@@](C)(C(=O)O)C[C@H]2C[C@]2(C)CC[C@]12O
Ans: 3.80
